- Tested on: human recombinant carboxylesterases
- assayProtocol: In vitro metabolic stability in human recombinant carboxylesterases (rate of metabolite formation, LC-MS/MS)
- Format: in vitro ADME
- conditions: metabolite Cyclosporine A; 1 μM test compound, 0.1 mg/mL human recombinant carboxylesterase mixture, pH=6.0, 37° C., triplicate
readoutName: Rate of formation Metabolite 2 (Cyclosporine A) (nM/min/mg)
Numbers only; they are read as nM/min/mg.

molecule	measuredValue
C/C=C/C[C@@H](C)[C@@H](OC(=O)OCOC(=O)CCC(=O)OCCOCCOC(=O)CCC(=O)OCC(=O)[C@@]1(O)CCC2C3CCC4=CC(=O)C=C[C@]4(C)C3[C@@H](O)C[C@@]21C)C1C(=O)NC(CC)C(=O)N(C)CC(=O)N(C)[C@@H](CC(C)C)C(=O)NC(C(C)C)C(=O)N(C)C(CC(C)C)C(=O)NC(C)C(=O)NC(C)C(=O)N(C)C(CC(C)C)C(=O)N(C)C(CC(C)C)C(=O)N(C)C(C(C)C)C(=O)N1C (relative stereo)	21.6
C/C=C/C[C@@H](C)C(OC(=O)OCOC(=O)CCC(=O)OCCOCCOCCOC(=O)CCC(=O)OCC(=O)[C@@]1(O)CCC2C3CCC4=CC(=O)C=C[C@]4(C)C3[C@@H](O)C[C@@]21C)C1C(=O)NC(CC)C(=O)N(C)CC(=O)N(C)[C@@H](CC(C)C)C(=O)NC(C(C)C)C(=O)N(C)C(CC(C)C)C(=O)NC(C)C(=O)NC(C)C(=O)N(C)C(CC(C)C)C(=O)N(C)C(CC(C)C)C(=O)N(C)C(C(C)C)C(=O)N1C (relative stereo)	35.6

Okay, next one:
Ask | May I ask what Rate of formation Metabolite 2 (Cyclosporine A) has been recorded for C/C=C/C[C@@H](C)[C@@H](OC(=O)OCOC(=O)CCC(=O)OCCOCCOCCOCCOC(=O)CCC(=O)OCC(=O)[C@@]1(O)CCC2C3CCC4=CC(=O)C=C[C@]4(C)C3[C@@H](O)C[C@@]21C)C1C(=O)NC(CC)C(=O)N(C)CC(=O)N(C)[C@@H](CC(C)C)C(=O)NC(C(C)C)C(=O)N(C)C(CC(C)C)C(=O)NC(C)C(=O)NC(C)C(=O)N(C)C(CC(C)C)C(=O)N(C)C(CC(C)C)C(=O)N(C)C(C(C)C)C(=O)N1C (relative stereo) ?
Reply | 34.4
